Molecular target: 5-lipoxygenase (Rattus norvegicus, UniProt P12527)
Construct: endogenous in cells; host or cells: casein-elicited peritoneal polymorphonuclear leukocytes of male Sprague-Dawley rats
Sequence (P12527 1-673): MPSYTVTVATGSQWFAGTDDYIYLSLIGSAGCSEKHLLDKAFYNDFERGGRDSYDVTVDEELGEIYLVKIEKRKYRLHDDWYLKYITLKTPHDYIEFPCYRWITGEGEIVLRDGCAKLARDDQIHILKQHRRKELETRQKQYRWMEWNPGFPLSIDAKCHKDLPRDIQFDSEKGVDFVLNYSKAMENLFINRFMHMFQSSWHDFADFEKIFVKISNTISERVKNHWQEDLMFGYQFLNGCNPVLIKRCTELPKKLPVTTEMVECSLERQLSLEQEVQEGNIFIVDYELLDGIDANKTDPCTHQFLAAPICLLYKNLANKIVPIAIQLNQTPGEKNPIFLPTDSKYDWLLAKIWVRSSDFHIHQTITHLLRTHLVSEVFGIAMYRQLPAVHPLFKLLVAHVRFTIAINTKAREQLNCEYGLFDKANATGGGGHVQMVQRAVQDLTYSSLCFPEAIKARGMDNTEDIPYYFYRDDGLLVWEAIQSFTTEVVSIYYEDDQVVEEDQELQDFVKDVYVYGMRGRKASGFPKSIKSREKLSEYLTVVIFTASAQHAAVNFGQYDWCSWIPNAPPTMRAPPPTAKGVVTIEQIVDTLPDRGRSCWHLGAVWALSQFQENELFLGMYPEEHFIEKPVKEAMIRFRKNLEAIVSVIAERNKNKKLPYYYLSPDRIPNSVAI
Assay: PMN5LO assay: inhibition of LTB4 production in A23187-stimulated rat peritoneal PMN (RIA)
Type: cell-based
Settings: 0.33 μg/ml
measuredEndpoint: inhibition at 0.33 µg/mL (%)

{"columns": ["smilesData", "targetUnderTest", "val"],
 "data": [
  ["CC(=O)Oc1cscc1-c1ccccc1", "5-lipoxygenase (Rattus norvegicus, UniProt P12527)", 0],
  ["COc1ccc(-c2sc3c(c2OC(C)=O)CCCC3)cc1", "5-lipoxygenase (Rattus norvegicus, UniProt P12527)", 85],
  ["CC(=O)Oc1cc(-c2ccccc2)sc1-c1ccccc1C", "5-lipoxygenase (Rattus norvegicus, UniProt P12527)", 34],
  ["COCOc1cc(-c2ccccc2)sc1-c1ccccc1", "5-lipoxygenase (Rattus norvegicus, UniProt P12527)", 74],
  ["Oc1cc(-c2ccccc2)sc1-c1cccnc1", "5-lipoxygenase (Rattus norvegicus, UniProt P12527)", 81],
  ["CC(=O)Oc1cc(-c2ccccc2)oc1-c1ccccc1", "5-lipoxygenase (Rattus norvegicus, UniProt P12527)", 53],
  ["c1ccc(-c2ccc(-c3ccccc3)s2)cc1", "5-lipoxygenase (Rattus norvegicus, UniProt P12527)", 23],
  ["Cc1ccccc1-c1cc(O)c(-c2ccccc2)s1", "5-lipoxygenase (Rattus norvegicus, UniProt P12527)", 100],
  ["CC(=O)Oc1cc(-c2ccccc2)sc1-c1cccnc1", "5-lipoxygenase (Rattus norvegicus, UniProt P12527)", 94]
]}

====

Target: 5-lipoxygenase (Rattus norvegicus, UniProt P12527)
Construct: endogenous in cells; host or cells: casein-elicited peritoneal polymorphonuclear leukocytes of male Sprague-Dawley rats
Sequence (P12527 1-673): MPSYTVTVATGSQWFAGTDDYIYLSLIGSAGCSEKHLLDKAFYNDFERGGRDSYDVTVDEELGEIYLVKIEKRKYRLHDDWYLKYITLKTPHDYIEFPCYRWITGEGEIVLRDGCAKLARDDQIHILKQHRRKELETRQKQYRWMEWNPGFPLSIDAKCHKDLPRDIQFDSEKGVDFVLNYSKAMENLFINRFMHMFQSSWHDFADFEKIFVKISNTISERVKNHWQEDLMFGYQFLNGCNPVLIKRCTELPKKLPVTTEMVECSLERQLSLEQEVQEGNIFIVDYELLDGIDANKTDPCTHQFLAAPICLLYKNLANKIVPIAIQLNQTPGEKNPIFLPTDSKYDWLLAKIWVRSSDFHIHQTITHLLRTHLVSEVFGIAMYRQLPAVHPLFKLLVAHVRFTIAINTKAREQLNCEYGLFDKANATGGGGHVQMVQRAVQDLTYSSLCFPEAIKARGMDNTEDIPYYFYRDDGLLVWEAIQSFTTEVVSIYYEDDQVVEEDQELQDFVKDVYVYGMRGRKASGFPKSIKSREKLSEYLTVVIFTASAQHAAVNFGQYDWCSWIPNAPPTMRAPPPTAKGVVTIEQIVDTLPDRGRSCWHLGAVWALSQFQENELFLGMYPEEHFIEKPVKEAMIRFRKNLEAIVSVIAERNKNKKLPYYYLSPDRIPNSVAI
Assay: PMN5LO assay: inhibition of LTB4 production in A23187-stimulated rat peritoneal PMN (RIA)
Assay type: cell-based
Details: 0.11 μg/ml
Description: Two screening methods were employed for the purposes of evaluating the biological activities of the compounds of the present invention. The PMN5LO assay is a direct measure of the capacity to inhibit 5-lipoxygenase. […] The frozen plates were thawed to 4° C. and 25 μl aliquots removed to V well plates. […] Aliquots of the supernatant were counted in a Packard 460, analyzed in a Masscomp computer and the data drawn up as % inhibition of LTB4 production.
measuredEndpoint: inhibition at 0.11 µg/mL (%)

{"columns": ["compound", "measuredEndpoint", "val"],
 "data": [
  ["CC(=O)Oc1cscc1-c1ccccc1 [Compound 15, 3-Acetoxy-4-phenylthiophene]", "inhibition at 0.11 µg/mL", 0],
  ["Cc1ccccc1-c1cc(O)c(-c2ccccc2)s1 [Compound 18]", "inhibition at 0.11 µg/mL", 96],
  ["Oc1c(-c2ccccc2)sc(-c2ccccc2)c1-c1ccccc1 [Compound 2, 3-Hydroxy-2,4,5-triphenylthiophene]", "inhibition at 0.11 µg/mL", 0],
  ["Oc1cc(-c2ccccc2)sc1-c1cccnc1 [Compound 22]", "inhibition at 0.11 µg/mL", 45],
  ["c1ccc(-c2ccc(-c3ccccc3)s2)cc1", "inhibition at 0.11 µg/mL", 15],
  ["CC(=O)Oc1csc(-c2ccccc2)c1 [Compound 1]", "inhibition at 0.11 µg/mL", 1],
  ["CC(=O)Oc1cc(-c2ccccc2)sc1-c1ccccc1 [Compound 3]", "inhibition at 0.11 µg/mL", 100],
  ["COc1cc(-c2ccccc2)sc1-c1ccccc1 [Compound 19]", "inhibition at 0.11 µg/mL", 0],
  ["COCOc1cc(-c2ccccc2)sc1-c1ccccc1 [Compound 12]", "inhibition at 0.11 µg/mL", 31],
  ["CC(=O)Oc1cc(-c2ccccc2)oc1-c1ccccc1", "inhibition at 0.11 µg/mL", 36],
  ["CC(=O)Oc1cc(-c2ccccc2)sc1-c1ccccc1C", "inhibition at 0.11 µg/mL", 17]
]}
